STATED_CONDITIONS: 293.15 K; 80100 kPa; Liquid; Frequency=1.5 MHz; Single path-length method
MEASUREMENT_LABEL: speed of sound (m/s)

COMPOUND	MEASUREMENT_LABEL	RECORDED_RESULT
CO [methanol]	speed of sound	1464.7
CCCCCCCC [octane]	speed of sound	1587.3
CCCO [propan-1-ol]	speed of sound	1572.1
CCO [ethanol]	speed of sound	1522.1
CCCCCC [hexane]	speed of sound	1536.7
O [water]	speed of sound	1615.8
Cc1ccccc1 [toluene]	speed of sound	1637
CCCCCCC [heptane]	speed of sound	1564.9

====

Listing: speed of sound of selected compounds
STATED_CONDITIONS: 333.15 K; 30100 kPa; Liquid; Frequency=1.5 MHz; Single path-length method

COMPOUND	ENDPOINT_UNIT	speed of sound
CCCO [propan-1-ol]	m/s	1265.9
CCCCCC [hexane]	m/s	1164
CO [methanol]	m/s	1169.8
Cc1ccccc1 [toluene]	m/s	1315.7
CCO [ethanol]	m/s	1212.1
CCCCCCC [heptane]	m/s	1206.4
CCCCCCCC [octane]	m/s	1239.8
O [water]	m/s	1604.8

====

Listing: speed of sound of selected compounds
STATED_CONDITIONS: 323.15 K; 100 kPa; Liquid; Frequency=1.5 MHz; Single path-length method

RECORD_SMILES	speed of sound, m/s
Cc1ccccc1	1200.2
CCCCCCC	1025.9
CCO	1060.4
CCCCCC	966.77
CCCO	1121.7
CO	1022
CCCCCCCC	1071.1

====

Listing: speed of sound of selected compounds
STATED_CONDITIONS: 313.15 K; 80100 kPa; Liquid; Frequency=1.5 MHz; Single path-length method

COMPOUND	speed of sound [m/s]
CO [methanol]	1422.7
CCCCCCC [heptane]	1510.3
CCCCCC [hexane]	1478.3
CCCO [propan-1-ol]	1525.9
CCCCCCCC [octane]	1533.6
Cc1ccccc1 [toluene]	1576.1
CCO [ethanol]	1475.7
O [water]	1663.3

====

Listing: speed of sound of selected compounds
STATED_CONDITIONS: 323.15 K; 20100 kPa; Liquid; Frequency=1.5 MHz; Single path-length method
MEASUREMENT_LABEL: speed of sound (m/s)

COMPOUND	MEASUREMENT_LABEL	RECORDED_RESULT
CCCO [propan-1-ol]	speed of sound	1241.7
CCCCCC [hexane]	speed of sound	1131.8
O [water]	speed of sound	1577.7
CO [methanol]	speed of sound	1143.8
CCO [ethanol]	speed of sound	1185.2
CCCCCCCC [octane]	speed of sound	1212.3
CCCCCCC [heptane]	speed of sound	1176.7
Cc1ccccc1 [toluene]	speed of sound	1306.4

====

STATED_CONDITIONS: 343.15 K; 60100 kPa; Liquid; Frequency=1.5 MHz; Single path-length method
Numbers after ± are expanded uncertainties.
Listing: speed of sound of selected compounds

RECORD_SMILES	speed of sound
CCCCCCCC	1367.8 ± 2.9 m/s
Cc1ccccc1	1413.5 ± 3 m/s
CCCCCCC	1339.5 ± 3 m/s
CCCCCC	1304.4 ± 3 m/s
O	1663.9 ± 3.4 m/s
CO	1283.5 ± 2.7 m/s
CCO	1328.8 ± 2.8 m/s
CCCO	1379 ± 2.9 m/s

====

STATED_CONDITIONS: 343.15 K; 10100 kPa; Liquid; Frequency=1.5 MHz; Single path-length method
MEASUREMENT_LABEL: speed of sound (m/s)

MOLECULE	MEASUREMENT_LABEL	ENDPOINT_UNIT	RECORDED_RESULT
CCCO [propan-1-ol]	speed of sound	m/s	1123.4
Cc1ccccc1 [toluene]	speed of sound	m/s	1178.9
CCO [ethanol]	speed of sound	m/s	1065.8
CCCCCCC [heptane]	speed of sound	m/s	1032.5
CCCCCC [hexane]	speed of sound	m/s	977.66
CCCCCCCC [octane]	speed of sound	m/s	1074.2
O [water]	speed of sound	m/s	1574.4
CO [methanol]	speed of sound	m/s	1028.6

====

STATED_CONDITIONS: 313.15 K; 20100 kPa; Liquid; Frequency=1.5 MHz; Single path-length method

RECORD_SMILES	ENDPOINT_UNIT	speed of sound
CCCCCC	m/s	1167.8
O	m/s	1563.2
CCCCCCC	m/s	1212.3
CCCCCCCC	m/s	1247.3
CO	m/s	1171.1
CCCO	m/s	1271.4
CCO	m/s	1214.7
Cc1ccccc1	m/s	1341

====

STATED_CONDITIONS: 343.15 K; 90100 kPa; Liquid; Frequency=1.5 MHz; Single path-length method
Listing: speed of sound of selected compounds
MEASUREMENT_LABEL: speed of sound (m/s)

RECORD_SMILES	RECORDED_RESULT
O	1714.2
CCCO	1497.2
CCCCCCCC	1496
CCCCCC	1442.2
Cc1ccccc1	1522.1
CO	1396.8
CCCCCCC	1472.7
CCO	1446.3

====

STATED_CONDITIONS: 313.15 K; 70100 kPa; Liquid; Frequency=1.5 MHz; Single path-length method
± gives the expanded uncertainty stated by the source.

RECORD_SMILES	speed of sound
CO	1387.1 ± 2.9 m/s
CCCO	1489.5 ± 3.1 m/s
CCCCCCC	1468.7 ± 3.2 m/s
CCCCCCCC	1493.2 ± 3.1 m/s
CCCCCC	1435.6 ± 3.2 m/s
Cc1ccccc1	1542.7 ± 3.2 m/s
O	1646.9 ± 3.3 m/s
CCO	1438.4 ± 3 m/s

====

STATED_CONDITIONS: 333.15 K; 100 kPa; Liquid; Frequency=1.5 MHz; Single path-length method
For each record, check the reported speed of sound: if it is below 1000 m/s write Y, else write N.

RECORD_SMILES	GROUP_LABEL
CCCCCC	Y
O	N
CCCO	N
CCCCCCCC	N
Cc1ccccc1	N

====

STATED_CONDITIONS: 298.15 K; 101.33 kPa; Liquid; Vibrating tube method

COMPOUND	ENDPOINT_UNIT	mass density
Cc1ccccc1 [toluene]	kg/m3	862.2
CCCCCCCC [octane]	kg/m3	698.4
CO [methanol]	kg/m3	786.5
CCCO [propan-1-ol]	kg/m3	799.5
CCCCCC [hexane]	kg/m3	654.9
CCCCCCC [heptane]	kg/m3	679.5
CCO [ethanol]	kg/m3	785.1

====

Listing: speed of sound of selected molecules
STATED_CONDITIONS: 283.15 K; 70100 kPa; Liquid; Frequency=1.5 MHz; Single path-length method

RECORD_SMILES	speed of sound (m/s)
CCCCCCCC	1579.8
CO	1456.2
Cc1ccccc1	1640.3
CCO	1512.5
CCCO	1563.2
O	1565.4
CCCCCC	1526.9
CCCCCCC	1556.1

====

STATED_CONDITIONS: 283.15 K; 90100 kPa; Liquid; Frequency=1.5 MHz; Single path-length method

RECORD_SMILES	speed of sound / m/s
CCCCCCCC	1652.4
CCCCCC	1604.6
CCCCCCC	1629.7
CCCO	1630
CO	1520.7
Cc1ccccc1	1700.3
O	1600.1
CCO	1580.2

====

Listing: speed of sound of selected compounds
STATED_CONDITIONS: 333.15 K; 40100 kPa; Liquid; Frequency=1.5 MHz; Single path-length method
Numbers after ± are expanded uncertainties.
MEASUREMENT_LABEL: speed of sound

RECORD_SMILES	RECORDED_RESULT
Cc1ccccc1	1360.3 ± 2.9 m/s
O	1622.2 ± 3.3 m/s
CCCCCCCC	1295 ± 2.9 m/s
CCCCCCC	1264.6 ± 2.9 m/s
CCO	1262.3 ± 2.7 m/s
CO	1218.6 ± 2.6 m/s
CCCCCC	1225.4 ± 2.9 m/s
CCCO	1314.2 ± 2.8 m/s

====

STATED_CONDITIONS: 343.15 K; 80100 kPa; Liquid; Frequency=1.5 MHz; Single path-length method

RECORD_SMILES	speed of sound / m/s
CO	1361.1
CCCCCCC	1431.2
O	1697.4
CCCCCCCC	1455.5
CCCO	1458.2
CCCCCC	1400.1
Cc1ccccc1	1487.6
CCO	1409.5
